Reported pKd values are given for each entry in this list.
# Experimental target: T1, soluble human BLyS (human, UniProt Q9Y275 134-285)
# T1 construct: also called hBLyS; human BAFF (BLyS)
# Measurement notes: Biacore, antibody captured on chip, BLyS injected, 1:1 model, 25 C
Quick note: pKd values are minus log10 of concentrations in mol/L.

[
  {
    "Binder": "5B7 IgG1 F243A/V264A double mutein expressed in Pichia pastoris (antibody, V domains shown, IgG1 F243A/V264A (EU) double mutein, alpha-2,6-sialylated, from glycoengineered Pichia pastoris; also called 5B7-DM; 5B7-DM Pichia) VH: QVQLVQSGAEVKKPGASVKVSCKASGGTFSSYAISWVRQAPGQGLEWMGGIIPIFGTANYAQKFQGRVTITADKSTSTAYMELSSLRSEDTAVYYCARVDYDILTGYYMGYFDYWGQGTLVTVSS VL: DIVMTQSPATLSLSPGERATLSCRASQSVSSYLAWYQQKPGQAPRLLIYDASNRATGIPARFSGSGSGTDFTLTISSLEPEDFAVYYCQQRSNWPITFGQGTRLEIKR",
    "Parameter": "pKd",
    "Val": 9.75
  }
]

Below: the item to evaluate.
Prompt: Record request: pKd value, item 8D12 IgG1 F243A/V264A double mutein expressed in Pichia pastoris (antibody, V domains shown, IgG1 F243A/V264A (EU) double mutein, alpha-2,6-sialylated, from glycoengineered Pichia pastoris; also called 8D12-DM; 8D12-DM (Pichia)) VH: QVQLVQSGAEVKKPGASVKVSCKASGYTFTSYAMHWVRQAPGQRLEWMGWINAGNGNTKYSQKFQGRVTITRDTSASTAYMELSSLRSEDTAVYYCARAYYDILTGYSVYGMDVWGQGTTVTVSS VL: EIVLTQSPATLSLSPGERATLSCRANESVGNYLAWYQQKPGQAPRLLIYGASRRATGIPDRFSGSGSGTDFTLTISRLEPEDFAVYYCQQYGSSLLTFGGGTKVEIKR
Completion: 9.86

src = patent US20170101466A1
